# Assay Remarks: small-molecule microarray binders of probe aNog, primary screen, biochemical, biotinylated probe, 635/667 nm fluorescence (AID 1115);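 further: probe is biotinylated aNog protein used at 0.15 µg/mL for 1 h at 4 C; z-score combines 667 nm fluorescence of each spot with its signal to noise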
# Conditions Used: higher = more signal
Decide using composite z-score: a value greater than or equal to 0.8 is 1.0, a smaller one is 0.0.

• C=CC[C@]1(C(N)=O)N=C(c2ccc(OCCCO)cc2)O[C@H]1c1ccccc1N=[N+]=[N-] = 0.0
• COC(=O)[C@@]1(Cc2ccc(OC)cc2)[C@H]2c3cc(C(=O)N(C)C)n(Cc4c(CO)[nH]cc(C)c4=O)c3C[C@H]2CN1C(=O)c1ccccc1 = 0.0
• COC(=O)[C@@]1(Cc2ccccc2)[C@H]2c3cc(C(=O)N(C)C)n(CCF)c3C[C@H]2CN1C(=O)c1ccccc1 = 0.0
• COCCOC(=O)N1C(=O)[C@@]2(c3cc(C#CCCO)ccc31)[C@H](c1ccc(O)cc1)N1[C@H](c3ccccc3)[C@H](c3ccccc3)OC(=O)[C@H]1[C@@H]2C(=O)NC[C@H](O)c1ccccc1 = 1.0
• CC(C)c1ccc(NN2C(C(O)C3CCCCC3)C=CC3C(=O)N(c4ccccc4)C(=O)C32)cc1 (stereo not given) = 0.0
• C=C(/C=C\CNS(=O)(=O)c1ccc(C)cc1)[C@H](O)[C@H]1CCCN1S(=O)(=O)c1ccccc1[N+](=O)[O-] = 0.0
• COc1cccc(C)c1NC(=O)O[C@H]1[C@H](OC(=O)Nc2ccccc2-c2ccccc2)[C@@H](OC(=O)Nc2ccccc2-c2ccccc2)[C@@H](OC)O[C@@H]1CO = 1.0
• O=C1NC(=O)C2C1C=CC(C(O)C1CCCCC1)N2Nc1ccccn1 (stereo not given) = 0.0
• COC(=O)[C@@]1(Cc2ccc(F)cc2)[C@H]2c3cc(C(=O)N4CCCC4)n(Cc4ccc(OC(F)(F)F)cc4)c3C[C@H]2CN1C(=O)c1ccccc1 = 1.0
• CCOC(=O)C1=CC[C@@H](c2ccccc2)N(S(=O)(=O)c2ccc(C)cc2)[C@@H]1C#N = 0.0
• C=C(C(=O)CC[C@@H](OC(=O)c1ccccc1-c1ccccc1C(=O)O)c1ccc(OCCO)cc1)C(C)C = 0.0
• COC(=O)C1=CC(CCCO)=CC(c2ccc(CN3CCCC3)cc2)N(C)C=C1C(=O)OC (stereo not given) = 0.0
• C=CCC(OC(C)=O)[C@@H]1[C@@H](N(Cc2ccc(-c3ccccc3)cc2)C(=O)Cc2ccc(OC)cc2)c2cc(OCCCO)ccc2N1C(=O)Cc1ccc(OC)cc1 (stereo not given in full) = 0.0
• [N-]=[N+]=NCc1ccccc1[C@H]1OC(c2ccc(OCCCO)cc2)=N[C@@]1(Cc1ccccc1N=[N+]=[N-])C(=O)O = 0.0
• COC(=O)C1(CC(C)C)C=C2C(=C(C)C(=O)C2C)CN1 (stereo not given) = 1.0

====

The entries below come with measured composite z-score values attached.
# Assay Remarks: small-molecule binders of probe aInhba, primary screen, biochemical, small-molecule microarray, 635/667 nm fluorescence (AID 1148);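 further: score merges 667nm spot fluorescence with signal-to-noise for antibody binding to printed compounds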
# Conditions Used: higher = more signal
Endpoint Label: composite z-score

- COc1ccc(CCNC(=O)[C@@]2(C)c3ccccc3C(=O)N(Cc3ccc(OC(F)(F)F)cc3)[C@H]2c2ccc(CO)cc2)cc1: -0.166
- CCOC(=O)C[C@H]1[C@H](OC(=O)c2cc3ccccc3oc2=O)[C@@H](NC(=O)c2ccc(-c3ccccc3)cc2)c2cc(OCCCO)ccc2N1C(=O)Cc1ccc(OC)cc1: -0.0095
- O=C1O[C@H](c2ccccc2)[C@H](c2ccccc2)N2[C@H]1[C@@H](C(=O)O)[C@]1(C(=O)Nc3ccccc31)[C@H]2c1ccc(OCCO)cc1: -0.0468
- COc1ccc([Si](C)(C)[C@H]2[C@H](CC(=O)N(CCO)Cc3ccccc3)O[C@@]3(C(=O)N(Cc4cccc(N5CCCCC5=O)c4)c4ccccc43)[C@@H]2C)cc1: -0.0719
- C=C[C@H](OC)[C@@H](O)c1ccc(OC)c(O)c1: -0.29
- COC(=O)C(CC#Cc1ccc2c(c1)[C@]1(C(=O)N2)[C@H](C(=O)N2CCN(c3ncccn3)CC2)[C@H]2C(=O)O[C@H](c3ccccc3)[C@H](c3ccccc3)N2[C@@H]1c1ccc(O)cc1)C(=O)OC: 1.39
- CCCN1C(=O)[C@@]2(c3ccc([N+](=O)[O-])cc3)CC(=O)N(C3CCCCC3)[C@@H]2c2ccc(CO)cc21: -0.168
